- assayed.target: sGC α1/β1 heterodimer (Homo sapiens, UniProt Q02108+Q02153)
- Construct: expressed in transfected cells
- Sequence (Q02108 whole entry): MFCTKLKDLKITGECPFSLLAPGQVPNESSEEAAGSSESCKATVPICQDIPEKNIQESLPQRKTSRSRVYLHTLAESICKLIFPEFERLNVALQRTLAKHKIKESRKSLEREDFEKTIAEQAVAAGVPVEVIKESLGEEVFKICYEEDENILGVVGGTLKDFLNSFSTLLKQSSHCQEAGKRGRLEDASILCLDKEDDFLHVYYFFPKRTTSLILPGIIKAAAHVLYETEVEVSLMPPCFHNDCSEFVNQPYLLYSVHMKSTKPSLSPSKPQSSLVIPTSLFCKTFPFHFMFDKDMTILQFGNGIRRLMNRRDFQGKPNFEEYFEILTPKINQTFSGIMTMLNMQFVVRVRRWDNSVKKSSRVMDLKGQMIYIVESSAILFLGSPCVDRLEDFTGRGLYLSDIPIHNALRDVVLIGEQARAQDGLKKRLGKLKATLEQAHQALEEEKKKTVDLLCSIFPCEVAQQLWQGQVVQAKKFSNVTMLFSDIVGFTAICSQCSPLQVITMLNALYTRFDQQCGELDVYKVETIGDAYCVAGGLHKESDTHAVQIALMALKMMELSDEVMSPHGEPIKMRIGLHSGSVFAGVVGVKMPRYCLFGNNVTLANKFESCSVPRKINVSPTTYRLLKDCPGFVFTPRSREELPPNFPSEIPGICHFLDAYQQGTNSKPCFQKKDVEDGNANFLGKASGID
- Sequence (Q02153 whole entry): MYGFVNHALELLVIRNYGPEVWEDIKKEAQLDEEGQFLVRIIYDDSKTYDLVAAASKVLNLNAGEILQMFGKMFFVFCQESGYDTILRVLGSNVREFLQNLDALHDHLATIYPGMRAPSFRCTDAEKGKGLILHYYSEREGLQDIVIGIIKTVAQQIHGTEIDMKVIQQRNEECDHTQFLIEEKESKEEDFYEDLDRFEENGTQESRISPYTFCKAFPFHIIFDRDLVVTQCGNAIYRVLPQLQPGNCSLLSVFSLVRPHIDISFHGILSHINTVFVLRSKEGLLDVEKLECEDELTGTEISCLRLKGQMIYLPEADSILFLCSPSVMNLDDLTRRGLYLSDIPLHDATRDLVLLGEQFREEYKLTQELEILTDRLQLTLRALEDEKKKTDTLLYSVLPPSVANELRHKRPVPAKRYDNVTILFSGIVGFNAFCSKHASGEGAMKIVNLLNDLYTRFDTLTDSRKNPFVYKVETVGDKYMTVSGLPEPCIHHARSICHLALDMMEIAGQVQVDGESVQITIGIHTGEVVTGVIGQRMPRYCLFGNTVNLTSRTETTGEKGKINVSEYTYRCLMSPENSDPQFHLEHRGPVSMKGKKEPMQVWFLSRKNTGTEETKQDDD
- assay.details: Cell-Based sGC Functional Assay (CASA Assay)
- run.parameters: CHO-K1/sGC cells, intracellular cGMP by HTRF, 1 hr at 37° C.; IP from 4P fit; presence or absence of 1 μM DETA-NO not given
quantity.name: EC50 (nM)

Cn1ncc2c(-c3nc(N)c4c(n3)NC(=O)C4(C)c3ccccc3)nc(CCC(F)(F)C(F)(F)F)nc21 (single isomer, unassigned): 40

[1] [2H]C([2H])([2H])n1nnc2c(-c3nc(N)c4c(n3)NC(=O)C4(C)c3ccc(F)c(OC)c3)nc(CCC(F)(F)C(F)(F)F)nc21 (single isomer, unassigned)
[2] [2H]C([2H])([2H])n1ccc2c(-c3nc(N)c4c(n3)NC(=O)C4(C)c3ccccc3)nc(CCC(F)(F)C(F)(F)F)nc21 (single isomer, unassigned)
[3] CC1(c2ccccc2)C(=O)Nc2nc(-c3nc(CCC(F)(F)C(F)(F)F)nc4[nH]ccc34)nc(N)c21 (single isomer, unassigned)
[4] CCn1ncc2c(-c3nc(N)c4c(n3)NC(=O)C4(C)c3ccccc3)nc(CCC(F)(F)C(F)(F)F)nc21 (single isomer, unassigned)
### Prompt Please list these compounds in decreasing order of EC50. Respond with the label ranking, as requested.
### Response 1, 3, 4, 2
(1: 424 nM, 3: 255 nM, 4: 85 nM, 2: 47 nM)
